The next entries give measured pKd for Somatostatin receptor type 4 (Homo sapiens, UniProt P31391).
pKd: −log10 of the molar value. Residues, ends and D or L forms follow the SMILES beside them.

Some solved entries appear below for comparison.
Compound: CC(=O)N[C@H](CC(=O)NC[C@H](CCCCN)C(=O)N[C@H](CC(=O)N[C@H](CC(N)=O)Cc1ccccc1)Cc1c[nH]c2ccccc12)[C@@H](C)O
Result: 7.08
//
Compound: CC(=O)N[C@H](CC(=O)N[C@@H](CCCCN)CC(=O)N[C@H](CC(=O)N[C@H](CC(N)=O)Cc1ccccc1)Cc1c[nH]c2ccccc12)[C@@H](C)O
Result: < 4.00

Let us move to another entry and its pKd.
Kindly note: Somatostatin receptor type 4 (Homo sapiens, UniProt P31391), CC(=O)N[C@H](C(=O)N[C@@H](CCCCN)C(=O)N[C@@H](Cc1c[nH]c2ccccc12)C(=O)N[C@@H](Cc1ccccc1)C(N)=O)[C@@H](C)O (Ac-TKWF-NH2) , pKd value reported: < 5.00

* * *

Molecular target: Somatostatin receptor type 5 (Homo sapiens, UniProt P35346)
Sequence (P35346 whole entry): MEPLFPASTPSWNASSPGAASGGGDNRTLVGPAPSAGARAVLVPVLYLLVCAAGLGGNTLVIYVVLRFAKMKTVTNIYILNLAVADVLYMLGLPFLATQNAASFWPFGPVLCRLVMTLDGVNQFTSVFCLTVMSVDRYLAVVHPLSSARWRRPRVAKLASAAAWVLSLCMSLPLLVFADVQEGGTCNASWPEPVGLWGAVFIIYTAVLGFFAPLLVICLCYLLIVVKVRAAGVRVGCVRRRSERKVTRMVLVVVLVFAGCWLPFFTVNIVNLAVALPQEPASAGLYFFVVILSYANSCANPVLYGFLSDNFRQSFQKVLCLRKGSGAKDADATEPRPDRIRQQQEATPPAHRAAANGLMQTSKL
pKd: −log10 of the molar value. Residues, ends and D or L forms follow the SMILES beside them.
Metric: pKd

Kindly note: Somatostatin receptor type 5 (Homo sapiens, UniProt P35346), CC(=O)N[C@H](C(=O)N[C@@H](CCCCN)C(=O)N[C@@H](Cc1c[nH]c2ccccc12)C(=O)N[C@@H](Cc1ccccc1)C(N)=O)[C@@H](C)O (Ac-TKWF-NH2) , pKd value reported: < 4.00
